Tested on: OVCAR3
Experiment: Growth suppression, cancer cell line panel (resazurin)
Format: cell-based
Conditions: Homo sapiens, OVCAR-3; OVCAR3 ovarian, 48 hours, resazurin
quantity.measured: IC50 (nM)

- Cl.N#Cc1c(-c2cccnc2)[n+]([O-])c2cc(F)c(N3CCOCC3)cc2[n+]1[O-] [1d*HCl]: 2640

###

System: BT20
Assay: Growth suppression, cancer cell line panel (resazurin)
Format: cell-based
Settings: Homo sapiens, BT-20; BT20 breast, 48 hours, resazurin
quantity.measured: IC50 (µM)

• Cl.N#Cc1c(-c2cccnc2)[n+]([O-])c2cc(F)c(N3CCOCC3)cc2[n+]1[O-] [1d*HCl] = 5.91

###

Test system: T47D
Assay: Growth suppression, cancer cell line panel (resazurin)
Type: cell-based
Details: Homo sapiens; T47D breast, 48 hours, resazurin
pIC50: −log10 of the molar value.
quantity.measured: pIC50

• Cl.N#Cc1c(-c2cccnc2)[n+]([O-])c2cc(F)c(N3CCOCC3)cc2[n+]1[O-] [1d*HCl] = 5.56

###

Tested on: K562
Test: Growth suppression, cancer cell line panel (resazurin)
Assay type: cell-based
Conditions: Homo sapiens; K562 leukemia, 48 hours, resazurin
quantity.measured: IC50 (nM)

• Cl.N#Cc1c(-c2cccnc2)[n+]([O-])c2cc(F)c(N3CCOCC3)cc2[n+]1[O-] [1d*HCl] = 2950

###

Tested on: HT29
Assay: Growth suppression, cancer cell line panel (resazurin)
Type: cell-based
Settings: Homo sapiens, HT-29; HT29 colon, 48 hours, resazurin
pIC50: −log10 of the molar value.
quantity.measured: pIC50

* Cl.N#Cc1c(-c2cccnc2)[n+]([O-])c2cc(F)c(N3CCOCC3)cc2[n+]1[O-] [1d*HCl] | 5.46

###

Test system: MDA- MB231
Experiment: Growth suppression, cancer cell line panel (resazurin)
Assay type: cell-based
Settings: Homo sapiens, MDA-MB-231; MDA-MB231 breast, 48 hours, resazurin
Procedure: Breast, colon, ovarian, cervical, liver and lung carcinoma cell lines were grown in DMEM supplemented with 10% FBS, and antibiotics were cultured at 37 °C and 5% CO2. […] Cells were grown in 96-well plates at a density of 3000 cells per well with or without doxycycline and treated with compounds. […] The degree of resazurin reduction, which reflects cell viability, was measured by microplate reader by monitoring the absorbance at 570 nm and 600 nm, according to the manufacturer. […]
quantity.measured: IC50 (nM)

• Cl.N#Cc1c(-c2cccnc2)[n+]([O-])c2cc(F)c(N3CCOCC3)cc2[n+]1[O-] [1d*HCl] = 780

###

System: OVCAR4
Experiment: Growth suppression, cancer cell line panel (resazurin)
Assay type: cell-based
Settings: Homo sapiens, OVCAR-4; OVCAR4 ovarian, 48 hours, resazurin
quantity.measured: IC50 (nM)

- Cl.N#Cc1c(-c2cccnc2)[n+]([O-])c2cc(F)c(N3CCOCC3)cc2[n+]1[O-] [1d*HCl]: 1570

###

Test system: HCT116-Cas9
Assay: Growth suppression assay (resazurin)
Assay type: cell-based
Conditions: 48 hours of incubation, methanesulfonate
Protocol: Breast, colon, ovarian, cervical, liver and lung carcinoma cell lines were grown in DMEM supplemented with 10% FBS, and antibiotics were cultured at 37 °C and 5% CO2. […] Cells were grown in 96-well plates at a density of 3000 cells per well with or without doxycycline and treated with compounds. […] The degree of resazurin reduction, which reflects cell viability, was measured by microplate reader by monitoring the absorbance at 570 nm and 600 nm, according to the manufacturer.
quantity.measured: IC50 (nM)

- N#Cc1c(-c2ccncc2)[n+]([O-])c2cc(N3CCOCC3)c(F)cc2[n+]1[O-] [1a*MsOH, methanesulfonate]: 1200

###

System: SW756
Experiment: Growth suppression, cancer cell line panel (resazurin)
Type: cell-based
Details: Homo sapiens; SW756 cervical, 48 hours, resazurin
quantity.measured: IC50 (nM)

- Cl.N#Cc1c(-c2cccnc2)[n+]([O-])c2cc(F)c(N3CCOCC3)cc2[n+]1[O-] [1d*HCl]: 1540

###

Tested on: SKBR3
Assay: Growth suppression, cancer cell line panel (resazurin)
Format: cell-based
Conditions: Homo sapiens, SK-BR-3; SKBR3 breast, 48 hours, resazurin
quantity.measured: IC50 (µM)

- Cl.N#Cc1c(-c2cccnc2)[n+]([O-])c2cc(F)c(N3CCOCC3)cc2[n+]1[O-] [1d*HCl]: 2.13

Attribution: patent EP4201929A1
